B1: PhoQ; a variant is named by its letters at X, in order, P23837 (parent)
chain: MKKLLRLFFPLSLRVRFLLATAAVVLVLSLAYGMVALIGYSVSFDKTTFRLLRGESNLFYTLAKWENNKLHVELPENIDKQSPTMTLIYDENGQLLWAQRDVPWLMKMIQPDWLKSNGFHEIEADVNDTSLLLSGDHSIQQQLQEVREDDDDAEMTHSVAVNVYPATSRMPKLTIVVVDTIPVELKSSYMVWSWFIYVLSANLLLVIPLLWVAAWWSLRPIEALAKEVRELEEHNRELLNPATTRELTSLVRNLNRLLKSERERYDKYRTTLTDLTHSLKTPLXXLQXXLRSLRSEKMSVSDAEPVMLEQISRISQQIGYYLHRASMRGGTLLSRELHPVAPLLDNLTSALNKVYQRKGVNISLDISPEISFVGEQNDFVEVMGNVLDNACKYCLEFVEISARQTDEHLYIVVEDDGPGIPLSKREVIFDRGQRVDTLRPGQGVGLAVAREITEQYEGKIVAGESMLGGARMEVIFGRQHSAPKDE

# Variants of: B1
# experiment_notes: enrichment ratio after two sorts for PhoP signalling (ratio (wild type AVST 3.29)); higher = more functional
# study_conditions: with PhoP (E. coli)
Whole data set: some 140,000 sequences, median “enrichment ratio after two sorts for PhoP signalling” near 0, cut for the highest 2% near 11. The list comes from a sample in which the highest values are over-represented; it also holds close analogues and randomly drawn sequences.
Exercise: for every item that follows, state its recorded enrichment ratio.

[
  {
    "mutation_key": "NMCF",
    "enrichment ratio": "≤ 0.25"
  },
  {
    "mutation_key": "AMSM",
    "enrichment ratio": 15.1
  }
]

Batch of 8 variants: report enrichment ratio for each.
1. MIHF
2. PVFC
3. MILA
4. TGNG
5. MIGH
6. TLSL
7. NVGF
8. SLMQ

1. 3.77
2. ≤ 0.25
3. 1.31
4. 23.3
5. 18.2
6. 15.8
7. ≤ 0.25
8. 11.8

Batch of 3 variants: report enrichment ratio for each.
1. VCYP
2. SPWT
3. MISK

1. ≤ 0.25
2. ≤ 0.25
3. ≤ 0.25

Batch of 3 variants: report enrichment ratio for each.
1. TNFS
2. AVSF
3. QFGW

1. ≤ 0.25
2. 9.87
3. ≤ 0.25

Batch of 8 variants: report enrichment ratio for each.
1. QKFN
2. PLCF
3. MITH
4. AMCF
5. QKLN
6. SSMQ
7. FINA
8. SYMQ

1: ≤ 0.25; 2: ≤ 0.25; 3: ≤ 0.25; 4: 12.3; 5: ≤ 0.25; 6: 11.5; 7: ≤ 0.25; 8: ≤ 0.25

Batch of 3 variants: report enrichment ratio for each.
1. QKGI
2. PLGF
3. WICF

≤ 0.25
≤ 0.25
≤ 0.25

Batch of 2 variants: report enrichment ratio for each.
1. YTLN
2. TYSH

1: 8.58; 2: 1.78

Batch of 4 variants: report enrichment ratio for each.
1. MILY
2. NVMV
3. MISC
4. MDYM

0.599
≤ 0.25
23
≤ 0.25

Batch of 7 variants: report enrichment ratio for each.
1. TGSL
2. STLN
3. LEWT
4. TNGF
5. VVMQ
6. AISM
7. HPPT

1. 16.8
2. 14.8
3. 12.5
4. 15.9
5. 13.3
6. 15.9
7. ≤ 0.25
